system: HOP-62 NSCLC; test: NCI tumour cell line growth inhibition, 48 h
For each record, write down the corresponding TGI.

Answered examples (2):
LINE NOTATION: Cc1nc2ccccc2c(=O)n1NC(=O)c1ccccc1[N+](=O)[O-]
TGI: > 100 µM
//
LINE NOTATION: CCCc1n[nH]c(=O)n1N1C(=O)C=CC1=O
TGI: > 100 µM

Query :: Which TGI is reported for this molecule? O=C1CSC(c2ccc(-c3nc4ccccc4[nH]3)cc2)=N1
Result :: > 50 µM
